Attribution: ChEMBL document CHEMBL1201862

# Test system: SF-539
# experimental_details: NCI tumour cell line growth inhibition, 48 h
Activity calls are given as the source filed them. Rule as the data show it: active = GI50 up to about 1.1 µM and inactive = higher.
# maps each entry to its GI50
observed_property: GI50

>>> df
                                   compound       value_measured
0  Cc1cc(O)c2c(c1)C(O)(c1ccc3c(c1O)C(=O)c1c(O)cc(C)cc1C3(O)C1OC(CO)C(O)C(O)C1O)c1cccc(O)c1C2=O (stereo unspecified)   13.6 µM (inactive)
1               O=c1cccccc1NCCCNc1cccccc1=O  > 100 µM (inactive)
2  CCO/S(=N/S(=O)(=O)c1ccccc1)c1ccccc1[N+](=O)[O-] (stereo unspecified)  > 100 µM (inactive)
3            CCCNCc1nc2ccc(Br)cc2c(=O)n1CCC   15.8 µM (inactive)
4  CC1NC(C(=O)O)Cc2cc(O)c(O)cc21 (stereo unspecified)  > 100 µM (inactive)
5  CC1(C)C=Cc2c(cc(O)c3c(=O)c4cc(Cl)ccc4[nH]c23)O1   4.13 µM (inactive)

---

# Test system: COLO 205
# experimental_details: NCI tumour cell line growth inhibition, 48 h
Activity calls are given as the source filed them. Rule as the data show it: active = GI50 up to about 1.1 µM and inactive = higher.
Possible outcomes: active, inactive

molecule	label_value
C=C1C2C[C@@H]3O[C@H]4C[C@H]5O[C@@]6(C[C@@H]7O[C@]8(C[C@H](C)[C@@H]9O[C@@H]%10CC(C=O)O[C@@H]%10C[C@@H]9O8)C[C@H](C)[C@@H]7O6)C[C@H]5O[C@H]4[C@H](C)[C@H]3OC(=O)C[C@H]3CC[C@@H]4OC5[C@H]6O[C@]7(CC[C@H]8CC(=C)[C@H](CC[C@@H](C[C@H]1C)O2)O8)CC6O[C@@H]5[C@@H](O7)[C@H]4O3 (some centres not stated)	active
COC(=O)C(=O)C1(CCC(C)=O)c2ccccc2-c2ccccc21	inactive
O=[N+]([O-])c1cccc2nc3ccccc3c(NCCC[N+]3([O-])CCCCC3)c12	active
NC(=S)NNc1c([N+](=O)[O-])cnn(-c2ccccc2)c1=O	inactive
CCOC(=O)N1C=CC(=C2C(=C3C=CN(C(=O)OCC)C=C3)C(=C3C=CN(C(=O)OCC)C=C3)C2=C2C=CN(C(=O)OCC)C=C2)C=C1	inactive
CNc1ncnc2c1cnn2Cc1cn(CCCCO)nn1	inactive
CCCCCCCCC[C@@H]1C[C@H](O)[C@H](Cc2ccccc2)N1C(=O)OC(C)(C)C	inactive

---

# Test system: KM-20L2
# experimental_details: NCI tumour cell line growth inhibition, 48 h
Activity calls are given as the source filed them. Cut-off read from the data, not from the text of the source: active = GI50 up to about 1.1 µM and inactive = higher.
Possible outcomes: Yes (active), No (inactive)

molecule	study_target	label_value
CCCCCCCCC[C@@H]1C[C@H](O)[C@H](Cc2ccccc2)N1C(=O)OC(C)(C)C	KM-20L2	No
COC(=O)[C@@H]1c2cc3c(c(O)c2[C@@H](OC)C[C@@]1(C)O)C(=O)c1c(O)cc2c(c1C3=O)OC1O[C@@]2(C)[C@H](O)[C@@H](N(C)C)[C@@H]1O	KM-20L2	Yes
COc1ccc(C2ON(c3ccccc3)CC=C2C)cc1 (stereo unspecified)	KM-20L2	No
CC(C)OP(=O)(OC(C)C)/C(Cl)=N/Nc1ccc([N+](=O)[O-])cc1	KM-20L2	No
CCCNCc1nc2ccc(Br)cc2c(=O)n1CCC	KM-20L2	No
C[C@H]1[C@@H]2C[C@@H]3O[C@@]34[C@H]3CCC5Cc6nc7c(nc6C[C@@]5(C)[C@]3(O)CC(=O)[C@@]24CO[C@]12OC(C)(C)C[C@@H]2O)CC1CC[C@@H]2C3=C[C@H]4O[C@@]5(OC(C)(CO)C[C@@H]5O)[C@H](C)[C@@]4(O)[C@]3(C)[C@@H](O)CC2[C@]1(C)C7 (stereo partly specified)	KM-20L2	Yes

---

# Tested on: HCC 2998
# experimental_details: NCI tumour cell line growth inhibition, 48 h
Activity calls are given as the source filed them. Cut-off read from the data, not from the text of the source: active = GI50 up to about 1.1 µM and inactive = higher.
Possible outcomes: 1 (yes) (active), 0 (no) (inactive)

compound	label_value
N#CC(C#N)=C1NN=C(Cl)c2ccccc21	0 (no)
N#CCN1CCCN(CC#N)CCN(CC#N)CCCN(CC#N)CC1	0 (no)
CC1CN1c1c(C(=O)/C=C/c2ccccc2)c(-c2ccccc2)nn(C)c1=O (stereo not given)	0 (no)
CCCCCCCCCCCCCC(=O)CSCCNC(=O)CCNC(=O)[C@@H](O)C(C)(C)COP(=O)(O)OP(=O)(O)OCC1OC(n2cnc3c(N)ncnc32)C(O)C1OP(=O)(O)O (stereo not given in full)	0 (no)
Oc1cc(Br)cc2cc(Br)cnc12	0 (no)
c1ccc(CC(Nc2cccnc2)c2ccccc2)cc1 (stereo not given)	0 (no)
CN1CCN(c2ncc3c(n2)sc2c(=O)n(-c4ccccc4)cnc23)CC1	0 (no)
Cn1nc(Cc2ccc(Cl)cc2)n(N)c1=O	0 (no)
COc1ccc(C[C@H]2NC(=O)/C=C/C[C@@H]([C@H](C)[C@H]3O[C@@H]3c3ccccc3)OC(=O)[C@H](CC(C)C)OC(=O)[C@H](C)CNC2=O)cc1	1 (yes)
N#Cc1cc2c(n(C3OC(CO)C(O)C(O)C3O)c1=S)CCCCCC2 (stereo not given)	0 (no)

---

# Tested on: OVCAR-8
# experimental_details: NCI tumour cell line growth inhibition, 48 h
Active and inactive are the calls of the source. No stated cut-off is given here; in the data, active = GI50 up to about 1.1 µM and inactive = higher.
observed_property: GI50

                                   molecule  observed_property       value_measured
0  Cc1ccc2c(C3Cc4ccccc4N3C(=O)/C=C\C(=O)O)c(C)[nH]c2c1 (stereo unspecified)               GI50   30.6 µM (inactive)
1     Cc1cc(C(=O)N2CCN(Cc3ccccc3)CC2)c(C)o1               GI50  > 100 µM (inactive)
2  Cc1ccc(NC(=O)c2cccc([N+](=O)[O-])c2O)c([N+](=O)[O-])c1               GI50   12.5 µM (inactive)
3  COc1ccc(-c2cc(C(O)C3CCCCN3)c3ccccc3n2)cc1 (stereo unspecified)               GI50   13.7 µM (inactive)
4  NCCNc1nc(N2CCCC2)c2nc(Cl)c(NCc3ccccc3)nc2n1               GI50   1.76 µM (inactive)
5  Brc1ccc(C2CC(c3cccc4ccccc34)=Nc3ccccc3S2)cc1 (stereo unspecified)               GI50  > 100 µM (inactive)

---

# System: TK-10
# experimental_details: NCI tumour cell line growth inhibition, 48 h
Activity calls are given as the source filed them. No stated cut-off is given here; in the data, active = GI50 up to about 1.1 µM and inactive = higher.
# maps each entry to its GI50
observed_property: GI50

>>> print(df.to_string())
                                    compound  study_target       value_measured
 0  COC(=O)Cc1c(C(=O)CC(C)(C)n2cnc(CCN3C(=O)CCC3=O)c2)[nH]c2ccccc12         TK-10  > 100 µM (inactive)
 1            N#Cc1nc(CCc2nc(C#N)c(N)o2)oc1N         TK-10   > 10 µM (inactive)
 2          CC1(C)N=C(N)N=C(N)N1c1ccc(Cl)cc1         TK-10   48.8 µM (inactive)
 3  O=c1c(Cc2cccc(Cc3c(O)oc4ccccc4c3=O)c2)c(O)oc2ccccc12         TK-10  > 100 µM (inactive)
 4  Cc1ccc(OC2CC(n3cnc4ncnc(Cl)c43)OC2Oc2ccc(C)cc2)cc1 (stereo unspecified)         TK-10  > 100 µM (inactive)
 5             CC(=O)/C(C)=N/NC(=O)c1ccccc1O         TK-10   > 10 µM (inactive)
 6      C/C(=N\NC(N)=S)c1cccs1.OB(O)c1ccccc1         TK-10  > 100 µM (inactive)
 7  O=C1OC(c2ccccc2)C2CC3CC4(CCC3CN12)OCCO4 (stereo unspecified)         TK-10  > 100 µM (inactive)
 8  COc1ccc(C2ON(c3ccccc3)CC=C2C)cc1 (stereo unspecified)         TK-10  > 100 µM (inactive)
 9  C=C(CCC/C(C)=C/C=C/[C@]1(C)CCCc2ccoc21)CC(=O)O         TK-10  > 100 µM (inactive)
10  CC(C)(C)C1CCP(=O)(c2ccccc2)CC1 (stereo unspecified)         TK-10  > 100 µM (inactive)

---

# System: SK-MEL-2
# experimental_details: NCI tumour cell line growth inhibition, 48 h
The source made the active and inactive calls. Cut-off read from the data, not from the text of the source: active = GI50 up to about 1.1 µM and inactive = higher.
observed_property: GI50

In [3]: df
Out[3]:
                                   molecule       value_measured
0  CCC(=O)N1C(=O)OCC1C(C)C (stereo not drawn)  > 100 µM (inactive)
1  CCCN(CCC)C1CC(n2cc(C)c(=O)[nH]c2=O)OC1CO (stereo not drawn)  > 100 µM (inactive)
2       Cc1ccc(C(=O)NC(C)(C)C)cc1/N=N/N(C)C  > 100 µM (inactive)
